Give growth inhibition for every item shown.
METHOD DESCRIPTION: NCI Yeast Anticancer Drug Screen. Data for the bub3 strain (AID 167)
CONDITION: S. cerevisiae bub3 mutant strain, at 50.0 µM, active compounds read high
About 79,000 compounds went through this panel and 15% of them were active in at least one assay; those are over-represented in the sample as a whole.
// return numeric value only (unit: %, not printed)

The measured growth inhibition associated with `CCOC(=O)CSc1ccnc(=O)[nH]1` reads -16

Measured growth inhibition, `COC(=O)c1ccccc1N=Cc1cc(Cl)ccc1O` : 19.6

`S=C1Cc2c([nH]c3ccccc23)-c2ccccc2N1` yielded growth inhibition of 23.2

get_value(item= `CNC(=O)N(c1ccccc1)C1CCCCC1` , readout=growth inhibition) returns 9.8

Looking up `CC(=O)Nc1ccc(N=Nc2c(C)nn(C(=N)N)c2C)cc1` , I see its growth inhibition listed as -4.2

Lookup result for `C[Si](C)(C)c1ccc2c(c1O)C(=O)c1ccccc1C2=O` ; measured growth inhibition: -1.15

The recorded growth inhibition for entry `CCOC(=O)c1ccc(Nc2nc3cc(C(F)(F)F)ccc3nc2C(=O)OCC)cc1` equals -11.7

# compound `COc1cc([N+](=O)[O-])c(C(=O)O)c(C(=O)O)c1OC` ; its growth inhibition = 1.7

growth inhibition recorded for this compound, `F[Si](c1ccccc1)(c1ccccc1)c1cccc2ccccc12` , is 98.5

growth inhibition measured on `O=C1NC(=O)C(=Cc2cc3c(cc2Br)OCO3)C(=O)N1` = 41.9

Reported growth inhibition ( CC1CCC2C(C)C3C(CC4C5CC=C6CC(O)CCC6(C)C5CCC43C=O)N2C1 (centres undefined) ) = 3.9

CCCCCCCCCC1(C(=O)OCC)OC1(C)C (centres undefined) yielded growth inhibition of 15.2

What the record says about `CN(C)c1ccc(N=Cc2ccc3c(c2)OCO3)cc1` : growth inhibition is -6.1

growth inhibition reported for this compound NC(Cc1ccc(S(=O)(=O)O)cc1)C(=O)NC(CCCCNC(=O)NCCCCC(NC(=O)C(N)Cc1ccc(S(=O)(=O)O)cc1)C(=O)NC(Cc1ccc(S(=O)(=O)O)cc1)C(=O)O)C(=O)NC(Cc1ccc(S(=O)(=O)O)cc1)C(=O)O (centres undefined) : 22.6

Entry `CC(=O)O[C@H]1CC[C@]2(C)[C@H]3C(=O)C=C4[C@@H]5C[C@@](C)(C(=O)O)CC[C@]5(C)CC[C@@]4(C)[C@]3(C)CC[C@H]2C1(C)C` ; growth inhibition = 26

So for CC(O)C(O)C(=O)NN (centres undefined) , the logged growth inhibition turned out to be -2.9

Memo: `Cc1cc(N(CCC#N)CCC#N)ccc1/C=C1N=C(/C=C\c2ccccc2)N(c2ccc(C(=O)O)cc2)C\1=O` , reported growth inhibition: -16.4

growth inhibition reported for this compound CSC1=NC=C(C#N)C2=NC(c3ccc(Cl)cc3)NN12 (centres undefined) : 15.8

For this compound ( `O=C(O)/C(=C\c1ccccc1[N+](=O)[O-])c1ccc(C(F)(F)F)cc1` ), measured growth inhibition is 10.7

Looking up `CN(C=O)c1cccc(C(=O)O)c1` , I see its growth inhibition listed as -2.35

Entry Nc1ccc(C(=O)NN2C(=O)C(Cl)C2c2ccccc2Cl)cc1 (centres undefined) — recorded growth inhibition = 38.3

Form: compound = COc1cccc2c1C(=N)c1c(O)c3c(c(O)c1C2=O)C[C@@](O)(C(C)=O)C[C@@H]3OC1CC(N)C(O)C(C)O1 (some centres undefined) ; growth inhibition = -4.35

Entry `O=C(Nc1nc(C23CC4CC(CC(C4)C2)C3)cs1)c1cc2cc(Cl)ccc2oc1=O` ; growth inhibition = -28.1

Recorded result, `CCCCCCCCCCCCCCCCSc1ccc(Br)cc1` , growth inhibition: 2.2

// growth inhibition lookup, compound = `CCOC(=O)Nc1cc2c(c(N)n1)N=C(CN(C)c1ccccc1)CN2` , result: 35

The compound listed as `O=[N+]([O-])c1cc(Br)cc2c1[nH]c1nc3ccc(C(F)(F)F)cc3nc12` shows growth inhibition equal to -2.2

The compound `CC1(C)OC(=O)N=C1c1ccc(F)cc1` showed growth inhibition equal to -1.65

growth inhibition reading for `COc1ccc2c(=O)c(-c3ccc(OC)c(OC)c3)c(C)oc2c1` : -31.4

GET /value?item= `CNC(=O)c1nnn(Cc2ccc(OC)cc2)c1Cl` &field=growth inhibition returns -1.3

Entry COC(=O)C=Cc1ccc2nncnc2c1 (mixture of isomers) — recorded growth inhibition = 36.4

GET /value?item= `C/C(=N\N=C(/C)c1ccc(Br)s1)c1ccc(Br)s1` &field=growth inhibition returns -12.8

GET /value?item= `Nc1ncnc2nc(-c3ccc(C(=O)c4cccc([N+](=O)[O-])c4)cc3)[nH]c12` &field=growth inhibition returns 14.6

// sample `Cc1nc(CCCCCCCC(=O)O)ccc1O` , its growth inhibition was 0.85

// recorded growth inhibition for `COc1cc([N+](=O)[O-])c(S(=O)(=O)O)cc1-n1nc(-c2ccccc2)n[n+]1-c1cc(S(=O)(=O)[O-])c([N+](=O)[O-])cc1OC` : -20.4

The recorded growth inhibition for OCC1CCN(CCOCc2ccccc2)C1 (centres undefined) is -7.05

Entry under test: `Cc1ccc2c(c1)C(c1ccccc1)(c1ccccc1)N(c1ccccc1)S2(=O)=O` . Its growth inhibition was 20.5

Record summary for Cc1ccc(C)c(N=C2NC(=O)C(CC(=O)Nc3ccc(Cl)cc3Cl)S2)c1 (centres undefined) : reported growth inhibition = -10.9

`Oc1ccc(C2=NNC(c3ccc(O)cc3)=NN2)cc1` has a reported growth inhibition of 12.8

Lab note: CCC(C)CCC(=O)C(C)C=O (centres undefined) gave growth inhibition of -6.2

The reported value for O=C(c1nc2ccc(Cl)cc2[nH]c1=O)C(O)c1ccccc1 (centres undefined) in terms of growth inhibition is 28.9

Data point: `Cc1ccc(S(=O)(=O)/C(=C/c2ccccc2)CC(=O)c2ccccc2)cc1` ; growth inhibition = 11.1

Entry Nc1nc2c(ncn2C2C=CC(CO)C2)c(=O)[nH]1 (centres undefined) ; growth inhibition = -2.1

Lab note: `O=C(COc1ccc(Cl)cc1Cl)Nc1c(Cl)cc(Cl)cc1Cl` gave growth inhibition of -4.8

The value of growth inhibition measured for the compound Nc1ccc(C(C(=O)O)c2ccccc2)cc1Cl (centres undefined) turned out to be 12.3

Recorded values, source PubChem BioAssay (NCI).
